- assay.explanation: in vitro
- condition.parameters: human, HaCaT cell viability, β-1 adrenergic receptor antagonist only
- Description: A fixed number (7×10^4 cells/dish) of HaCaT cells (human skin keratinocytes) were seeded in each well of a multi-well plate (24 wells). […] MTT (3-(4,5-dimethylthiazol-2-yl)-2,5-diphenyltetrazolium bromide and 300λ bromide-3-(4,5-dimethyl-2-thiazole)-2,5-diphenyltetrazolium) were added and 1 hour later, the supernatant was removed, DMSO was added and the resultant was shook. […] ELISA was used to measure the absorbance value (OD570, optical density 570 nm) and calculate the cell cell viability. […]
measured.endpoint: viability at 24 h (%)

* CC(C)NCC(O)COc1ccc(CCOCC2CC2)cc1 (stereo not shown) [Betaxolol, betaxolol] | 100

###

- assay.explanation: in vitro
- condition.parameters: human
measured.endpoint: viability at 24 h, 0.5 μM (%)

• CN(C)C/C=C/C(=O)Nc1cc2c(Nc3ccc(F)c(Cl)c3)ncnc2cc1O[C@H]1CCOC1 = 89.8

###

- assay.explanation: in vitro
- condition.parameters: human, Cell viability (%)
measured.endpoint: viability at 24 h, 80 μM (%)

• CC(C)NCC(O)COc1ccc(CCOCC2CC2)cc1 (stereo not shown) = 90.1

###

- assay.explanation: in vitro
- condition.parameters: human, Cell viability (%)
measured.endpoint: viability at 24 h, 10 μM (%)

• CC(C)NCC(O)COc1ccc(CCOCC2CC2)cc1 (stereo not shown) [Betaxolol, betaxolol] = 92.8

###

- assay.explanation: in vitro
- condition.parameters: human
measured.endpoint: viability at 24 h, 2.5 μM

* CN(C)C/C=C/C(=O)Nc1cc2c(Nc3ccc(F)c(Cl)c3)ncnc2cc1O[C@H]1CCOC1 | 64.1%

###

- assay.explanation: in vitro
- condition.parameters: human, Cell viability (%)
measured.endpoint: viability at 24 h, 100 μM (%)

* CC(C)NCC(O)COc1ccc(CCOCC2CC2)cc1 (stereo not shown) | 88.1

###

- assay.explanation: in vitro
- condition.parameters: human
measured.endpoint: viability at 24 h, 0.1 μM (%)

* CN(C)C/C=C/C(=O)Nc1cc2c(Nc3ccc(F)c(Cl)c3)ncnc2cc1O[C@H]1CCOC1 [Afatinib, afatinib] | 90.6

###

- assay.explanation: in vitro
- condition.parameters: human, Cell viability (%)
measured.endpoint: viability at 24 h, 40 μM (%)

- CC(C)NCC(O)COc1ccc(CCOCC2CC2)cc1 (stereo not shown): 91.4

###

- assay.explanation: in vitro
- condition.parameters: human
measured.endpoint: viability at 24 h, 1 μM

* CN(C)C/C=C/C(=O)Nc1cc2c(Nc3ccc(F)c(Cl)c3)ncnc2cc1O[C@H]1CCOC1 [Afatinib, afatinib] | 87.2%
